Test: Toxicity liver stage against HepG2, at 10uM
Format: cell-based
Parameters: test concentration 10 uM, cell line HepG2-A16-CD81EGFP
Details: human, HepG2-A16-CD81EGFP cells; read-out: INHIBITION
Listing: cytotoxicity at 10 µM of selected molecules
Entry rule: numbers only, all in %.

Cc1ncsc1CNC(=O)N(CCCO)C1CCc2ccccc21 (stereo unspecified)    -9.99

# get_value(readout='cytotoxicity at 10 µM', item= Cc1cc(S(=O)(=O)NCC(C)(O)CN(C)C)c(F)cc1F (stereo unspecified) )
10

# get_value(readout='cytotoxicity at 10 µM', item= Cc1ncc(CN2CCOC(CNc3cccnn3)C2)s1 (stereo unspecified) )
-19.8

# get_value(readout='cytotoxicity at 10 µM', item= `O=C(c1cnc(NCc2cccnc2)c(Cl)c1)N1CCCCC1` )
8.89

# get_value(readout='cytotoxicity at 10 µM', item= CCn1ccnc1CN1CCN(CC(O)Cn2cccn2)CC1 (stereo unspecified) )
-5.97

# get_value(readout='cytotoxicity at 10 µM', item= Cc1nnc2n1CCN(C(C(=O)NC1CC1)c1ccc(F)cc1)C2 (stereo unspecified) )
-6.6

# get_value(readout='cytotoxicity at 10 µM', item= `COc1ccc(CN2CCn3c(CNS(C)(=O)=O)nnc3C2)cc1` )
4.19

# get_value(readout='cytotoxicity at 10 µM', item= Fc1ccc(CN2C[C@@H]3OCCN(CC4CCCO4)[C@@H]3C2)cc1 (stereo partly specified) )
-86.3

----------
Assay: Toxicity liver stage against HepG2, at 10uM
Type: cell-based
Design: test concentration 10 uM, cell line HepG2-A16-CD81EGFP
Conditions: human, HepG2-A16-CD81EGFP cells; read-out: INHIBITION
Readout Type: cytotoxicity at 10 µM (%)
Entry rule: numbers only, all in %.

Cc1cccc(CN2CCC(Cc3ccccc3F)CC2)n1    1.88
CCc1cc(NCCC(F)(F)F)nc(N2CCOCC2)n1    -4.65
CCCS(=O)(=O)N1CCC2(CCC(=O)N(CCc3ccccc3)C2)CC1    6.84
Cc1nccn1-c1ccc(C(C)NCc2cc[nH]n2)cc1 (configuration not stated)    5.33
Cc1ccc(OC2(C(=O)O)CCN(C(=O)c3ccsc3)CC2)cn1    -4.09
Cc1ccc(CN(C)c2cc(N3CCCC3CO)ncn2)s1 (configuration not stated)    5.6
O=S(=O)(CCN1CCOC(Cn2cccn2)C1)c1ccccc1 (configuration not stated)    -0.165
CCC[C@H]1CN(c2nc(CO)cs2)C[C@@H]1NC(=O)C1CCC1    6.07

# get_value(readout='cytotoxicity at 10 µM', item= `O=C(Nc1ccccc1OCCc1ccccn1)NC1CCOCC1` )
2.43

# get_value(readout='cytotoxicity at 10 µM', item= `O=C(O)c1c(Cl)ncn1-c1ccccc1` )
-2.34

# get_value(readout='cytotoxicity at 10 µM', item= Nc1nccnc1C(=O)NC1CCCN(Cc2c(F)cccc2F)C1 (configuration not stated) )
-2.14

# get_value(readout='cytotoxicity at 10 µM', item= COc1ccccc1C(=O)N1CCOCC1c1c(C)n[nH]c1C (configuration not stated) )
-8.72

----------
Listing: cytotoxicity at 10 µM of selected compounds
Test: Toxicity liver stage against HepG2, at 10uM
Assay type: cell-based
Parameters: test concentration 10 uM, cell line HepG2-A16-CD81EGFP
Details: human, HepG2-A16-CD81EGFP cells; read-out: INHIBITION
Entry rule: numbers only, all in %.

Below are worked cases with known answers.
COCCN1CCC(Cc2cnc(-c3ccccc3C(=O)O)cn2)CC1    -11.9
CCc1noc(C(C)N2CCCN(Cc3noc(C4CC4)n3)CC2)n1 (stereo unspecified)    -6.87
COc1cccc(-c2c[nH]c(C3CCCN3)n2)c1 (stereo unspecified)    -4.91
COc1ccnc(N2CCN(Cc3ncc(-c4ccccc4)o3)CC2)n1    -10.2
CC(CNC(=O)c1nc(N2CCOCC2)ncc1Cl)c1ccccc1 (stereo unspecified)    0.666

# get_value(readout='cytotoxicity at 10 µM', item= `CCOCCCn1c(NC(=O)c2scnc2C)nc2ccccc21` )
5.9

----------
Listing: cytotoxicity at 10 µM of selected compounds
Assay: Toxicity liver stage against HepG2, at 10uM
Format: cell-based
Set-up: test concentration 10 uM, cell line HepG2-A16-CD81EGFP
Conditions: human, HepG2-A16-CD81EGFP cells; read-out: INHIBITION
Entry rule: numbers only, all in %.

NC(=O)COc1ccc(CN2CCNC(C(=O)NC3CC3)C2)cc1Cl (stereo unspecified)    0.887
CN(CC(=O)Nc1cnn(-c2ccccc2S(C)(=O)=O)c1)C1CC1    0.315
c1ccc(OCCNC2=NCCCN2)cc1    -2.34
CC(C)OCCCNC(=O)c1cccnc1N1CCOCC1    10.5
Cc1cccc2c1nc1n2[C@@H](CNC2CCCCC2)COC1    -51.8

In the following, a different compound is considered.
# get_value(readout='cytotoxicity at 10 µM', item= `CCc1ncnc2c1CCN(c1ncc(F)cn1)CC2` )
7.86

----------
Test: Toxicity liver stage against HepG2, at 10uM
Assay type: cell-based
Design: test concentration 10 uM, cell line HepG2-A16-CD81EGFP
Details: human, HepG2-A16-CD81EGFP cells; read-out: INHIBITION
Readout Type: cytotoxicity at 10 µM (%)
Entry rule: numbers only, all in %.

O=C1CC(c2ccccc2)c2c(n3ccsc3nc2=O)N1 (configuration not stated)    -4.74
O=C1CSCN1Cc1nc(-c2ccc(N3CCCCC3)cc2)no1    -6.79
CN1CC[C@H]2OCC[C@@]2(C(=O)NCCc2ccccn2)C1    1.82
Cc1nc(C(C)C)sc1C(=O)NCCSc1nccn1C    -1.7
Cc1c(COC(C)C)cccc1NC(=O)N1CCCC(CO)C1 (configuration not stated)    -5.44

# get_value(readout='cytotoxicity at 10 µM', item= `Cc1ccccc1NS(=O)(=O)c1ccc(C(=O)O)cc1F` )
7.94

# get_value(readout='cytotoxicity at 10 µM', item= `CCSc1nnc(CCNC(=O)OC(C)(C)C)o1` )
-25.9

# get_value(readout='cytotoxicity at 10 µM', item= Cc1cnn(CC2CCCCN2C(=O)c2ccc3[nH]nnc3c2)c1 (configuration not stated) )
4.19

# get_value(readout='cytotoxicity at 10 µM', item= CC(=O)N1N=C(COc2ccc3c(c2)OCO3)OC1c1cccc(Cl)c1 (configuration not stated) )
-1.77

----------
Assay: Toxicity liver stage against HepG2, at 10uM
Format: cell-based
Parameters: test concentration 10 uM, cell line HepG2-A16-CD81EGFP
Conditions: human, HepG2-A16-CD81EGFP cells; read-out: INHIBITION
Readout Type: cytotoxicity at 10 µM (%)
Entry rule: numbers only, all in %.

Below are worked cases with known answers.
O=C1NC2(CCCCC2)c2nnnn2-c2ccc(Br)cc21    6.83
Cc1noc(C(C)N2CCN(Cc3nc(C)c(C)o3)CC2)n1 (configuration not stated)    0.397
CCNC(=O)N1CC2=CC(C)(C)COc3ccc(OC)c(c32)C1    8.47
Cc1nc(C2CCCNC2)nc2c1CCCN2Cc1ccccn1 (configuration not stated)    -2.76
Cc1ccc(CC(=O)N2CCOC(c3nc(C)n[nH]3)C2)cn1 (configuration not stated)    -3.28

# get_value(readout='cytotoxicity at 10 µM', item= Cc1cc(Cc2ccc(F)cc2)cc(C2CCCNC2)n1 (configuration not stated) )
-3.14

# get_value(readout='cytotoxicity at 10 µM', item= `Cc1cncc(C2CCN(Cc3cnc(C)nc3)CC2)n1` )
5.38

----------
Test: Toxicity liver stage against HepG2, at 10uM
Format: cell-based
Set-up: test concentration 10 uM, cell line HepG2-A16-CD81EGFP
Conditions: human, HepG2-A16-CD81EGFP cells; read-out: INHIBITION
Is cytotoxicity at 10 µM at least -10%? Then Fulfilled. If not, Not fulfilled.

Entry `CC(C)NC(=O)NCc1cc(-c2ccco2)n(CC(F)(F)F)n1` : is its cytotoxicity at 10 µM no less than -10%?
Not fulfilled

Entry `Cc1noc(C)c1CN1CCc2ncnc(-c3cccnc3)c2CC1` : is its cytotoxicity at 10 µM no less than -10%?
Not fulfilled

Entry CNc1nc(C2CCCN(C(=O)CNC(C)=O)C2)nc2c1CN(C)CC2 (stereo unspecified) : is its cytotoxicity at 10 µM no less than -10%?
Not fulfilled

Entry `Cc1nc(NCCSc2cnn[nH]2)c2c(C)noc2n1` : is its cytotoxicity at 10 µM no less than -10%?
Fulfilled

Entry Cc1cc(C(=O)N2CCC(n3nc(C)cc3C)C2)c2ccc(F)cc2n1 (stereo unspecified) : is its cytotoxicity at 10 µM no less than -10%?
Fulfilled

Entry `CCc1noc(CN2CCN(C(=O)N(CC)CC)CC2)n1` : is its cytotoxicity at 10 µM no less than -10%?
Fulfilled
